Molecular target: T1, full length human tau protein 2N4R (hT40) (human, UniProt P10636 1-758)
T1 construct: recombinant; also called T441
T1 sequence (P10636 other isoform, or with tags, fused parts or gaps limits assumed): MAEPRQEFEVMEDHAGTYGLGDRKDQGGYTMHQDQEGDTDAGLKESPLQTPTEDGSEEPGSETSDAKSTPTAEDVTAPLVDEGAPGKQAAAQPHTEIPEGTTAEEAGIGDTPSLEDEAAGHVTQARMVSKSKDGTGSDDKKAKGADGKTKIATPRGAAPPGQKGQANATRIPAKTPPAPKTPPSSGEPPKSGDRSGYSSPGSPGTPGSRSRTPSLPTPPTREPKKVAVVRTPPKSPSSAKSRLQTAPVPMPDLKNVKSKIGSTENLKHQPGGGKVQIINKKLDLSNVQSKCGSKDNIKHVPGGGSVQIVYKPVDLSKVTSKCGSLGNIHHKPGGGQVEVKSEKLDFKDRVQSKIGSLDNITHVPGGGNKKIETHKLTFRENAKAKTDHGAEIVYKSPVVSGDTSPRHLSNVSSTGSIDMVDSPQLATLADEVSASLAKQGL
Assay: sandwich ELISA, S1D12 mAb capture, scAb detection
test readout: LoD colourimetric detection (ng/mL)
A number alone suffices; assume ng/mL.

S1G10 scAb (scFv, not shown: small tags and cut ends, scAb) scFv: QVQLQESGPSLVKPSQTLSLTCTVSGFSLTSNSVGWVRQAPGKAPEWVAGIDTDGEEGYNPALNSRLSITRDTSKSQVSLSLSSVTSEDTAVYYCGRSYRADGLAYGYVQAIDYWGPGLLVTVSSEGKSSGASGESKVDDQAVLTQPSSMSGSLGQRVSITCSGSFIGISSVGWFQQLPGSGLRTIIVASDGRPSGVPDRFSMSKSGNTATLTISSLQAEDEADYFCGSSDRTQYTGVFGSGTRLTVLG; 2
CB7 scAb (scFv, not shown: small tags and cut ends, scAb) scFv: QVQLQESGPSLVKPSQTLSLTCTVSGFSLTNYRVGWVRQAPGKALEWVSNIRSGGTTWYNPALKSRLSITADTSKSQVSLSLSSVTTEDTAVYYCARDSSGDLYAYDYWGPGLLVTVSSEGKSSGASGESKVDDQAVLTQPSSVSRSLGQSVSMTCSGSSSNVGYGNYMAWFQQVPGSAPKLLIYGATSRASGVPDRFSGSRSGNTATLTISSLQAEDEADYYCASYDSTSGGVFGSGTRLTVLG; 15

Okay, now this binder:
What value of LoD colourimetric detection has been recorded for this entry: S1G2 scAb (scFv, not shown: small tags and cut ends, scAb) scFv: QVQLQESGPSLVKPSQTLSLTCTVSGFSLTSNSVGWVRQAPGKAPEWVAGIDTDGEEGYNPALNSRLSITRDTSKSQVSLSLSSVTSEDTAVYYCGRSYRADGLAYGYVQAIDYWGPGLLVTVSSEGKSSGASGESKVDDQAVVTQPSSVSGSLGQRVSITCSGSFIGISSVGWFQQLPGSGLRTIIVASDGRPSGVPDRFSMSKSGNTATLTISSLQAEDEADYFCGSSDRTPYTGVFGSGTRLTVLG
2
